molecular target: T1, Mouse BCMA-Fc (mouse, UniProt O88472 1-49, limits assumed); experiment: BLI (ForteBio Octet), IgG captured on AHC probe, antigen in solution, avid
T1 construct: also called BCMA from mouse (mobile phase); not shown: Fc part
T1 sequence (O88472 1-49 limits assumed): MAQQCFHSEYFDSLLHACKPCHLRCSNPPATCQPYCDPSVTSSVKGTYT
Observed Property: Kd (nM)
Write the answer as a number in nM, unit excluded.

Worked cases, answers included:
Entry under test: antibody ADI-38491 (antibody, V domains shown) VH: QLQLQESGPGLVKPSETLSLTCTVSGGSIVSSSYYWTWIRQPPGKGLEWIGSISIAGSTYYNPSLKSRVTISVDTSKNQFSLKLSSVTAADTAVYYCARDRGDTILDVWGQGTMVTVSS VL: DIQMTQSPSSLSASVGDRVTITCRASQSISRYLNWYQQKPGKAPKLLIYAASSLQSGVPSRFSGSGSGTDFTLTISSLQPEDFATYYCQQKYFDITFGGGTKVEIK . Its Kd was 3.04

Entry under test: antibody ADI-38484 (antibody, V domains shown) VH: QVQLVQSGAEVKKPGSSVKVSCKASGGTFSNDVISWVRQAPGQGLEWMGVIIPIFGIANYAQKFQGRVTITADESTSTAYMELSSLRSEDTAVYYCARGRGYYSSWLHDIWGQGTMVTVSS VL: DIQMTQSPSSLSASVGDRVTITCQASQDITNYLNWYQQKPGKAPKLLIYDASNLETGVPSRFSGSGSGTDFTFTISSLQPEDIATYYCQQAFDLITFGGGTKVEIK . Its Kd was 0.85

Entry under test: anti-BCMA parent antibody ADI-34861 (antibody, V domains shown, Tested as IgG (captured by anti-human Fc probe)) VH: QLQLQESGPGLVKPSETLSLTCTVSGGSISSSSYYWGWIRQPPGKGLEWIGSISYSGSTYYNPSLKSRVTISVDTSKNQFSLKLSSVTAADTAVYYCARDRGDTILDVWGQGTMVTVSS VL: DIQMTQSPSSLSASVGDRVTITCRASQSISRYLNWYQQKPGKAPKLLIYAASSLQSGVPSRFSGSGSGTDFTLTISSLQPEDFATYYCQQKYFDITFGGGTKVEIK . Its Kd was 3.68

Let us move to another entry and its Kd.
Entry under test: antibody ADI-38481 (antibody, V domains shown) VH: QVQLVQSGAEVKKPGSSVKVSCKASGGTFSNDVISWVRQAPGQGLEWMGVIIPIFGIANYAQKFQGRVTITADESTSTAYMELSSLRSEDTAVYYCARGRGYYSSWLLDIWGQGTMVTVSS VL: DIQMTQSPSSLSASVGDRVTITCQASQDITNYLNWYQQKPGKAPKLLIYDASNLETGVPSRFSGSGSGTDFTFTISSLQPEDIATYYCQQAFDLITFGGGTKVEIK . Its Kd was 2.44
